# maps each entry to its viability index
test system: Plasmodium falciparum NF54 gametocytes; assay: viability index relative to DMSO control (fraction); higher = less gametocyte killing; conditions: gametocyte stage: Stage V viability index; 12.5 µM; incubation time: 72 h

Before answering, review these 3 worked examples.
>>> print(df.to_string())
                            smiles_notation                            study_target  result
0        Cc1sc2ncnc(Sc3nc4ccccc4[nH]3)c2c1C  Plasmodium falciparum NF54 gametocytes  0.0659
1  O=C(Nc1ccc(-c2nc3ccccc3[nH]2)cc1)c1ccc(Cl)c(Cl)c1  Plasmodium falciparum NF54 gametocytes   0.727
2  Cn1c(=O)n(C)c2cc(CNCCNc3ccnc4cc(Cl)ccc34)ccc21  Plasmodium falciparum NF54 gametocytes   0.494

Now turn to the next compound.
// query Given the entry Cc1ccc(NC(=O)Nc2cccc(Cl)c2)cc1F , report its measured viability index.
// result 0.582
